Hey, just so you know, these numbers are from ChEMBL document CHEMBL4422679.

Field: IC50. Provide a value for each of the compounds that follow.
Biological target: Estrogen receptor (Homo sapiens)
Sequence (P03372 whole entry): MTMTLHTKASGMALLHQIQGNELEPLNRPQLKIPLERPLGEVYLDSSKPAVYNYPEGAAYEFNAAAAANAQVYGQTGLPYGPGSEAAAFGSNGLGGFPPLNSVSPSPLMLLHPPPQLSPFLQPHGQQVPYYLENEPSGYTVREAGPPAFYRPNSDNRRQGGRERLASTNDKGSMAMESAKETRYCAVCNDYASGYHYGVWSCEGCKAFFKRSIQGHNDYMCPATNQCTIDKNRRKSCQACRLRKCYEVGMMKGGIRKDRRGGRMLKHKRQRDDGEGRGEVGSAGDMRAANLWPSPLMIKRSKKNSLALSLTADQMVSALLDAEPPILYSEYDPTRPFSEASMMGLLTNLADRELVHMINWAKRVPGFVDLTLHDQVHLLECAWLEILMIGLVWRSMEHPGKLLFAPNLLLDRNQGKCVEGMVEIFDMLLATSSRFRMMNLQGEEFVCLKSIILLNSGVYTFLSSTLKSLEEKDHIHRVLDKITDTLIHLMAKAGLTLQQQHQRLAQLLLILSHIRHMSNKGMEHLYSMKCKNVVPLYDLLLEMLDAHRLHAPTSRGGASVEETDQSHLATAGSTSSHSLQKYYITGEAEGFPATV
The reply should consist of the numeric value with the unit placed after it.

Sample records with IC50:
compound	IC50
Oc1ccc2c(c1)C1=C(c3cc(O)ccc3OCC1)C(c1ccc(OCCN3CC(CF)C3)cc1)O2 (stereo in doubt; 19a)	0.24 nM
Oc1ccc2c(c1)OC(c1ccc(OCCN3CC(CF)C3)cc1)C1=C2CCOc2ccc(O)cc21 (stereo in doubt; 18a)	0.61 nM

Next:
Challenge: Could you share which IC50 value was measured for Oc1ccc2c(c1)C1=C(c3cc(O)ccc3OCC1)C(c1ccc(OCCN3CC(CF)C3)cc1)O2 (stereo in doubt; 19b) ?
Response given: 3.2 nM

---

assay: Octanol-buffer distribution coefficient, log D of the compound at pH 7.4; format: physicochemical
readout name: logD
Answers are plain numbers.

Please supply logD for each of the following items, keeping them in order.
1. Oc1ccc2c(c1)OCCC1=C2C(c2ccc(OCCN3CC(CF)C3)cc2)Oc2ccc(O)cc21 (stereo in doubt; 17b)
2. Oc1ccc2c(c1)O[C@@H](c1ccc(OCCN3CC(CF)C3)cc1)C1=C2CCOc2cc(O)ccc21

Response given:
1: 2.7; 2: 3

Please supply logD for each of the following items, keeping them in order.
1. Oc1ccc2c(c1)O[C@H](c1ccc(OCCN3CC(CF)C3)cc1)C1=C2CCOc2cc(O)ccc21
2. CC1=C(c2cccc(O)c2)[C@H](c2ccc(OCCN3CC(CF)C3)cc2)Oc2ccc(O)cc21

Response given:
1: 3.2; 2: 2.9
